- assayComment: ROSE Phase II trial, plasma concentrations of obicetrapib
- Format: in vivo, humans
- conditionDetails: both sexes, human, plasma, oral, Obicetrapib 5 mg + high‐intensity statin; Week 23, fifteen weeks after the end of treatment; read-out: Mean (SD) Plasma Level
readoutName: concentration at 23 weeks (ng/mL)
Entry rule: numbers only, all in ng/mL.

Request: What value of concentration at 23 weeks has been reported for the following compound? CCOC(=O)N1c2ccc(C(F)(F)F)cc2C(N(Cc2cc(C(F)(F)F)cc(C(F)(F)F)c2)c2ncc(OCCCC(=O)O)cn2)CC1CC (stereo not shown)
Result: 2.9

----------
- assayComment: 39-week oral (gavage) toxicity/toxicokinetic study with 13-week treatment-free recovery period in cynomolgus monkeys
- Type: in vivo, cynomolgus monkeys (Macaca fascicularis)
- conditionDetails: female, cynomolgus monkey, plasma, po, 50 mg/kg/day, Day 273 (Week 39); 50 mg/kg/d; females; mean
readoutName: Cmax (ng/mL)
State just the number; it will be interpreted in ng/mL.

Request: Returns the measured Cmax for the input molecule. Input: CCOC(=O)N1c2ccc(C(F)(F)F)cc2C(N(Cc2cc(C(F)(F)F)cc(C(F)(F)F)c2)c2ncc(OCCCC(=O)O)cn2)CC1CC (stereo not shown) [Obicetrapib]
Result: 8480

Reference source for all entries: paper PMC11489133
